Test system: Human rhinovirus sp.
Assay: Inhibition of recombinant N-terminal His-tagged HRV 3C protease expressed in Escherichia coli at 100 uM preincubated for 15 mins followed by LEVLFQGPSK substrate addition after 45 mins by reverse-phase HPLC analysis relative to control
Assay readout: inhibition (%)
The reply should contain only the number, in %.

Request: Fill in the blank: the reported inhibition of CC1(C)O[C@@H](C(=O)Nc2nc3ccccc3s2)[C@H](C(=O)N2CCN(c3ccccc3)CC2)O1 is ____.
Response: 100

Request: Same again, this time with COc1cccc(NCCNC(=O)[C@H]2OC(C)(C)O[C@@H]2C(=O)Nc2nc3ccccc3s2)c1
Response: 85.2

Request: Same again, this time with Cc1cccc(CN2CCN(C(=O)[C@H]3OC(C)(C)O[C@@H]3C(=O)Nc3nc4ccccc4s3)CC2)c1
Response: 85.3

Request: Same again, this time with CC1(C)O[C@@H](C(=O)Nc2nc3ccccc3s2)[C@H](C(=O)N2CCN(Cc3ccccc3)CC2)O1
Response: 85.5
